Numbers sourced from ChEMBL document CHEMBL4393738.

Experimental Protocol: Selectivity index, ratio of IC50 for mouse J774.A1 cells to MIC for Mycobacterium tuberculosis INH R2
Assay type: toxicity
Conditions: read-out: Selectivity Index
API: label(entry) gives satisfied if the entry's selectivity ratio is strictly smaller than 0.3; on equality or larger values it gives not satisfied.

The examples below pair each entry with its known result.
>>> df
                                   compound          class
0  CC1(C)OC2=C(C(=O)/C(=N\NC(=O)c3ccncc3)c3ccccc32)C1O (stereo unspecified)  not satisfied
1  CC1(C)OC2=C(CC1I)C(=O)C(=O)c1ccccc12 (stereo unspecified)  not satisfied
2  CC1(C)OC2=C(C(=O)C(=O)c3ccccc32)[C@H](n2cc(-c3ccccc3)nn2)[C@H]1Br (racemic)      satisfied
3          CC1(C)CC2=C(O1)C(=O)c1ccccc1C2=O  not satisfied
4  CC1(C)CC2=C(O1)c1ccccc1C(=O)C2=O [NOR-BETA-LAPACHONE]  not satisfied
5  CC1(C)CCC2=C(O1)c1ccccc1C(=O)C2=O [LAPACHONE]  not satisfied
6  CC1(C)OC2=C(C(=O)C(=O)c3ccccc32)C1O (stereo unspecified)      satisfied
7  CC1(C)OC2=C(C(=O)C(=O)c3ccccc32)C1n1cc(-c2ccccc2)nn1 (stereo unspecified)      satisfied

[ask] Dear reviewer, please state whether CC1CC2=C(O1)c1ccccc1/C(=N/NC(=O)c1ccncc1)C2=O (stereo unspecified) has selectivity ratio strictly beneath 0.3.
[reply] not satisfied

[ask] Lab log: compare recorded selectivity ratio with 0.3; is it strictly lower for CC1(C)CC2=C(O1)/C(=N\NC(=O)c1ccncc1)c1ccccc1C2=O ?
[reply] satisfied

----------
Experimental Protocol: Selectivity index, ratio of IC50 for mouse J774.A1 cells to MIC for Mycobacterium tuberculosis INH R2
Format: toxicity
Conditions: read-out: Selectivity Index
Property Label: selectivity ratio
Provide a numeric answer; units are not to be included.

>>> df
                                   molecule     property_label  test_value
0  O=C1C(=O)c2ccccc2C2=C1CC(Cn1cc(-c3ccccc3)nn1)O2 (stereo not given)  selectivity ratio         0.1

Let us examine a further case.
[ask] Which measured selectivity ratio value corresponds to CC1(C)OC2=C(C(=O)/C(=N\NC(=O)c3ccncc3)c3ccccc32)C1n1cc(-c2ccccc2)nn1 (stereo not given) ?
[reply] 8.1

----------
Each item that follows carries a reported selectivity ratio.
Experimental Protocol: Selectivity index, ratio of IC50 for mouse J774.A1 cells to MIC for Mycobacterium tuberculosis H37Rv
Format: toxicity
Conditions: read-out: Selectivity Index
Write the number on its own, no unit after it.

Examples with answers:
>>> df
                                   compound  test_value
0  CC1(C)OC2=C(CC1I)C(=O)C(=O)c1ccccc12 (stereo unspecified)           1
1          CC1(C)CC2=C(O1)C(=O)c1ccccc1C2=O         1.5
2  CC1(C)OC2=C(C(=O)C(=O)c3ccccc32)C1n1cc(-c2ccccc2)nn1 (stereo unspecified)         0.3

[ask] selectivity ratio lookup needed for O=C1C(=O)c2ccccc2C2=C1CC(Cn1cc(-c3ccccc3)nn1)O2 (stereo unspecified) , thanks.
[reply] 0.2

[ask] Fill blank: measured selectivity ratio of the compound CC1(C)CC2=C(O1)c1ccccc1C(=O)C2=O is ____.
[reply] 1.2

[ask] Could you tell me which selectivity ratio is on file for O=C1C2=C(OC(Cn3cc(-c4ccccc4)nn3)C2)c2ccccc2/C1=N/NC(=O)c1ccncc1 (stereo unspecified) ?
[reply] 1.5

[ask] Would you kindly share the measured selectivity ratio for CC1(C)OC2=C(C(=O)/C(=N\NC(=O)c3ccncc3)c3ccccc32)[C@H](n2cc(-c3ccccc3)nn2)[C@H]1Br ?
[reply] 0.9
